- Test system: PC26
- Measurement Description: qHTS profiling for inhibitors of Plasmodium falciparum proliferation (AID 504749); also: nearly all actives have a fitted effect of over 60% in size
- Cond: P. falciparum in erythrocytes, SYBR Green DNA, 72 h; series mostly up to 28.7 µM
Records with an inconclusive call do not appear. The source made the active and inactive calls. Calls follow the shape of the dose curve; as a rule, active = well fitted inhibition curve with a large enough effect; inconclusive = small, poorly fitted or top-dose-only effect; inactive = flat fitted curve, though single readings scatter.
Answer with one of the outcomes given here: active, inactive

Compound: O=C(O)CCNC(=O)c1ccccc1
Subject Of Test: PC26
Group: inactive
--
Compound: COc1cc(NS(=O)(=O)c2ccc(N)cc2)ncn1
Subject Of Test: PC26
Group: inactive
--
Compound: CC(=O)OC[C@H]1O[C@@H](n2ncc(=O)[nH]c2=O)[C@H](OC(C)=O)[C@@H]1OC(C)=O
Subject Of Test: PC26
Group: inactive
--
Compound: COc1cc(C(=S)N2CCOCC2)ccc1O
Subject Of Test: PC26
Group: inactive
--
Compound: CC(=O)OCC(=O)[C@H]1CC[C@H]2[C@@H]3CCC4=CC(=O)CC[C@]4(C)[C@H]3CC[C@]12C
Subject Of Test: PC26
Group: inactive
--
Compound: CCCCc1cc2ccccc2c(OCCN(C)C)n1
Subject Of Test: PC26
Group: inactive

In this assay, the call recorded for COc1ccc(C(Cl)=C(c2ccc(OC)cc2)c2ccc(OC)cc2)cc1 was what? inactive

Check CCOC(=O)Nc1ccc2c(c1)N(C(=O)CCN1CCOCC1)c1ccccc1S2 too. inactive

Check CN1CCC[C@@H]1CCO[C@](C)(c1ccccc1)c1ccc(Cl)cc1 too. inactive

Check CCCCN=C(N)N=C(N)N too. inactive

###

- Tested on: astro
- Measurement Description: Drug repurposing screens with cells derived from glioblastoma tumor samples (AID 1345199); also: nearly all actives have a fitted effect of over 40% in size
- Cond: viability, ATP luminescence, 48 h; series mostly up to 45.9 µM
Records with an inconclusive call do not appear. Active and inactive are the calls of the source. Calls come from the whole dose curve; as a rule, active = well fitted inhibition curve with a large enough effect; inconclusive = small, poorly fitted or top-dose-only effect; inactive = flat fitted curve, though single readings scatter.
Answer with one of the outcomes given here: active, inactive

Molecule: C[C@@]12C(=O)OC(=O)[C@]1(C)C1CCC2O1
Group: active
//
Molecule: C[N+]1(C)CCC(=C(c2ccccc2)c2ccccc2)CC1
Group: inactive
//
Molecule: NS(=O)(=O)Cc1noc2ccccc12
Group: inactive
//
Molecule: CC(=O)Oc1ccc(C)cc1
Group: inactive
//
Molecule: Cc1nc(-c2ccc(Cl)cc2)oc1COC(C)(C)C(=O)O
Group: inactive
//
Molecule: Cn1c(=O)c2[nH]c(Br)nc2n(C)c1=O
Group: inactive
//
Molecule: CCC1Nc2cc(Cl)c(S(N)(=O)=O)cc2S(=O)(=O)N1 (configuration not stated)
Group: inactive
//
Molecule: N#C/C(=C1\SCC(c2ccccc2Cl)S1)n1ccnc1 (configuration not stated)
Group: inactive
//
Molecule: CN(C)CCC[C@@]1(c2ccc(F)cc2)OCc2cc(C#N)ccc21
Group: inactive
//
Molecule: CCC(C(=O)OCCOCCN(CC)CC)c1ccccc1 (configuration not stated)
Group: inactive

In this assay, the call recorded for CCOC(=O)[C@H](CCc1ccccc1)N[C@@H](C)C(=O)N1[C@H](C(=O)O)C[C@@H]2CCC[C@@H]21 was what? inactive

Check CC(=O)O[C@H]1C[C@@H]2CC[C@@H]3[C@H](CC[C@@]4(C)[C@H]3C[C@H]([N+]3(C)CCCCC3)[C@@H]4OC(C)=O)[C@@]2(C)C[C@@H]1N1CCCCC1 too. inactive

Check CCCCCCCCCCCCSCCOCCO too. inactive

Check CCOC(=O)C(C#N)=C(c1ccccc1)c1ccccc1 too. inactive

Check CC(=O)OCC(=O)[C@H]1CC[C@H]2[C@@H]3CCC4=CC(=O)CC[C@]4(C)[C@H]3CC[C@]12C too. inactive

Check Nc1nc(Cl)nc2c1ncn2[C@@H]1O[C@H](CO)[C@@H](O)[C@@H]1F too. active

Check C=C[C@H]1CN2CC[C@H]1C[C@H]2[C@H](O)c1ccnc2ccc(OC)cc12 too. inactive

###

- System: Dd2
- Measurement Description: qHTS profiling for inhibitors of Plasmodium falciparum proliferation (AID 504749); also: nearly all actives have a fitted effect of over 60% in size
- Cond: P. falciparum in erythrocytes, SYBR Green DNA, 72 h; series mostly up to 28.7 µM
Inconclusive results are not listed. Activity calls are given as the source filed them. Calls follow the shape of the dose curve; as a rule, active = well fitted inhibition curve with a large enough effect; inconclusive = small, poorly fitted or top-dose-only effect; inactive = flat fitted curve, though single readings scatter.
Answer with one of the outcomes given here: active, inactive

Molecule: N#CCC(=O)NN
Group: inactive
--
Molecule: CC(C)(Cc1c[nH]c2ccccc12)NCC(O)COc1ccccc1C#N (configuration not stated)
Group: active
--
Molecule: COc1cc(C(=O)NCc2ccc(OCCN(C)C)cc2)cc(OC)c1OC
Group: inactive

Proceed to the following item.
In this assay, the call recorded for CCN(CC)CCOc1ccccc1C(=O)CCc1ccccc1 was what? active

###

- Subject Of Test: Voltage-gated inwardly rectifying potassium channel KCNH2 (Homo sapiens)
- Measurement Description: qHTS Assay for Small Molecule Inhibitors of the Human hERG Channel Activity (AID 588834);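 also: lower thallium flux fluorescence means stronger hERG block; nearly all actives have a fitted effect of over 50% in size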
- Cond: U2OS BacMam hERG, FluxOR thallium flux fluorescence; series mostly up to 46.1 µM
Records with an inconclusive call do not appear. The source made the active and inactive calls. Calls come from the whole dose curve; as a rule, active = well fitted inhibition curve with a large enough effect; inconclusive = small, poorly fitted or top-dose-only effect; inactive = flat fitted curve, though single readings scatter.
Answer with one of the outcomes given here: active, inactive

Sample answers from the record:
Compound: Nc1nc(N)c(-c2ccccc2)s1
Group: inactive
//
Compound: CN(Cc1ccc(C(C)(C)C)cc1)Cc1cccc2ccccc12
Group: active
//
Compound: CCOC(=O)c1ccc(N)cc1
Group: inactive
//
Compound: Cc1cn([C@H]2C[C@H](F)[C@@H](CO)O2)c(=O)[nH]c1=O
Group: inactive
//
Compound: COc1cc(NS(=O)(=O)c2ccc(N)cc2)ncn1
Group: inactive
//
Compound: N/C(=N\N=C\c1ccc(Cl)cc1)N/N=C/c1ccc(Cl)cc1
Group: active
//
Compound: CN1CCN(C2=Nc3ccccc3Sc3ccc(Cl)cc32)CC1
Group: active
//
Compound: CCOc1ccccc1OCCN[C@H](C)Cc1ccc(OC)c(S(N)(=O)=O)c1
Group: active

In this assay, the call recorded for COP(=O)(OC)OC(c1ccc(Cl)cc1)P(=O)(OC)OC (stereo unspecified) was what? inactive

Check CC(=C(CCOC(=O)C(C)C)SSC(CCOC(=O)C(C)C)=C(C)N(C=O)Cc1cnc(C)nc1N)N(C=O)Cc1cnc(C)nc1N too. inactive

Check CC(C)Cc1ccc(CC(=O)O)cc1 too. inactive

Check COc1ccc(C(=O)c2ccccc2O)c(O)c1 too. inactive

Check N#C/C(=C1\SCC(c2ccccc2Cl)S1)n1ccnc1 (stereo unspecified) too. inactive

Check CC(C)=CCOc1ccc(/C=C/C(=O)c2ccc(OCC=C(C)C)cc2OCC(=O)O)cc1 too. inactive

###

- Tested on: CP247
- Measurement Description: qHTS profiling for inhibitors of Plasmodium falciparum proliferation (AID 504749); also: nearly all actives have a fitted effect of over 60% in size
- Cond: P. falciparum in erythrocytes, SYBR Green DNA, 72 h; series mostly up to 28.7 µM
Records with an inconclusive call do not appear. Activity calls are given as the source filed them. Calls follow the shape of the dose curve; as a rule, active = well fitted inhibition curve with a large enough effect; inconclusive = small, poorly fitted or top-dose-only effect; inactive = flat fitted curve, though single readings scatter.
Answer with one of the outcomes given here: active, inactive

Sample answers from the record:
Molecule: N#CCC(=O)NN
Subject Of Test: CP247
Group: inactive
--
Molecule: COc1ccccc1N1CCN(CCCCNC(=O)c2ccc(-c3ccc(C(C)=O)cc3)cc2)CC1
Subject Of Test: CP247
Group: inactive
--
Molecule: CC(C)=CCOc1ccc(/C=C/C(=O)c2ccc(OCC=C(C)C)cc2OCC(=O)O)cc1
Subject Of Test: CP247
Group: inactive
--
Molecule: COc1cc(N)c(Cl)cc1C(=O)NC1CCN(Cc2ccccc2)CC1
Subject Of Test: CP247
Group: inactive
--
Molecule: C#C[C@]1(OC(C)=O)CC[C@H]2[C@@H]3CCC4=C/C(=N/O)CC[C@@H]4[C@H]3CC[C@@]21CC
Subject Of Test: CP247
Group: inactive
--
Molecule: CCCCCCCCCCCCCCCCO
Subject Of Test: CP247
Group: inactive
--
Molecule: C[C@@H](O)[C@H]1C(=O)N2C(C(=O)O)=C(S[C@@H]3CN[C@H](CNS(N)(=O)=O)C3)[C@H](C)[C@H]12
Subject Of Test: CP247
Group: inactive
--
Molecule: Oc1ccc(Cl)cc1Cc1cc(Cl)ccc1O
Subject Of Test: CP247
Group: active

Proceed to the following item.
In this assay, the call recorded for CC(C)[N+](C)(C)CC(O)COc1cccc2ccccc12 (centres undefined) was what? inactive

###

- Test system: P94_40
- Measurement Description: qHTS profiling for inhibitors of Plasmodium falciparum proliferation (AID 504749); also: nearly all actives have a fitted effect of over 60% in size
- Cond: P. falciparum in erythrocytes, SYBR Green DNA, 72 h; series mostly up to 28.7 µM
Results filed as inconclusive are left out. Active and inactive are the calls of the source. Calls follow the shape of the dose curve; as a rule, active = well fitted inhibition curve with a large enough effect; inconclusive = small, poorly fitted or top-dose-only effect; inactive = flat fitted curve, though single readings scatter.
Answer with one of the outcomes given here: Yes (active), No (inactive)

Sample answers from the record:
Compound: CCC(CC)(CC(=O)Nc1cccc(/C=C/c2nc(C3CCC3)cs2)c1)C(=O)O
Group: No
--
Compound: CC(=O)NO
Group: No
--
Compound: Nc1ccc(S(=O)(=O)Nc2cnc3ccccc3n2)cc1
Group: No
--
Compound: CCN(CC)CCNC(=O)c1cc(Br)c(N)cc1OC
Group: No
--
Compound: CCOC(=O)c1c(N)sc2c1CCN(Cc1ccccc1)C2
Group: Yes

In this assay, the call recorded for O=C1C(=O)c2ccccc2C(O)=C1C1CCC(c2ccc(Cl)cc2)CC1 (stereo not given) was what? Yes

Check NC(=O)n1c(O)c(C(=O)c2cccs2)c2cc(Cl)ccc21 too. No

Check O=S(=O)(O)c1ccc(O)cc1 too. No

Check O=C(Nc1cccc(C2=NCCN2)c1)Nc1cccc(C2=NCCN2)c1 too. Yes

Check CCCCCCCCCCCCSCCOCCO too. No

Check CC(C)NCC(O)c1ccc2ccccc2c1 (stereo not given) too. Yes

Check N=C(N)N1CCc2ccccc2C1 too. No
